tested on: RPMI-8226 leukemia; experiment: NCI tumour cell line growth inhibition, 48 h
What GI50 was measured for each of the following?

Here is how some molecules turned out for GI50.
1. CCN1CCN(C(=O)[C@]23CCC(C)(C)C[C@@H]2C2=CC[C@@H]4[C@@]5(C)C/C(=C/c6cccnc6)C(=O)C(C)(C)[C@@H]5CC[C@@]4(C)[C@]2(C)CC3)CC1 :: 959 nM
2. COc1ccc(/C=C/C(=O)c2ccc(Nc3ccnc4cc(Cl)ccc34)cc2)cc1 :: 4940 nM

Shifting focus to the molecule that follows.
Qu. Recorded GI50 for "C=C1N(C)c2ccc(Cl)cc2C1(C)C" , please?
Ans. 2560 nM

---

tested on: HCT-116 colon; assay: NCI tumour cell line growth inhibition, 48 h
What GI50 was measured for each of the following?

Here is how some compounds turned out for GI50.
1) CC(C)[C@@H]1CC[C@@H]2[C@@H]1[C@H](OC(=O)/C=C/c1ccccc1)[C@]1(C(C)C)C[C@@H](OC(=O)CO)[C@@]2(C)O1 :: 5790 nM
2) CCc1ccc(Nc2cc(C)nc3nc(C)nn23)cc1 :: 80100 nM
3) O=S(=O)(NCCCNc1cc(-c2cn(-c3ccccc3)nc2-c2cccc(O)c2)ccn1)c1ccc(Cl)cc1 :: 1570 nM
4) O=C1C(Cl)=C(Nc2cccc(O)c2)C(=O)N1c1cccc(Cl)c1Cl :: 11200 nM
5) C/C(=N\NC(=O)c1ccncc1)c1ccc(O)cc1O :: 3160 nM

Would you mind listing GI50 for each of the following compounds?
1. COc1ccc(Nc2ncccc2C(=O)NCc2cn(Cc3cccc(Oc4ccccc4)c3)nn2)cc1
2. Cc1ccc(NC(=O)c2nc(S(C)=O)oc2-c2ccc(F)cc2)cc1Nc1nccc(-c2cccnc2)n1 (stereo not given)
3. CC(=O)Nc1sc2c(c1-c1nc3ccccc3s1)CNC2
4. C[C@]12CC[C@H]3[C@@H](C[C@@H]4N=C(c5ccc(O)cc5)S[C@@]45C[C@H](O)CC[C@]35C)[C@@H]1CC[C@@H]2O
5. CN1CCCN(C(c2ccccc2)c2ccc(Br)cc2)CC1 (stereo not given)

Ans.
["4170 nM", "1880 nM", "1990 nM", "2370 nM", "1840 nM"]

---

test system: OVCAR-5 ovarian; assay: NCI tumour cell line growth inhibition, 48 h
What TGI was measured for each of the following?

Here is how some compounds turned out for TGI.
1. BrC12c3ccccc3Sc3ccccc3C1(Br)c1ccccc12 (centres undefined) :: 86.2 µM
2. COc1cc2c3c(c4c5ccccc5[nH]c4c2c(OC)c1OC)C(=O)N(CCN1CCCCC1)C3=O :: 3.05 µM
3. N=c1ccn2c(n1)O[C@@H]1[C@@H](O)[C@H](CO)O[C@@H]12 :: > 100 µM
4. COc1ccc(C#CCC(OC2OC(CO)C(O)C(O)C2O)C(O)c2ccc(OC)c(OC)c2)cc1OC (centres undefined) :: > 100 µM
5. C=C(CN1CCN(c2cccc(F)c2)CC1)c1ccc(C(=O)Nc2ccccc2N)cc1 :: > 100 µM
6. Cc1ccc(C)c(NC(=O)C(Cc2c[nH]c3ccccc23)NC(=O)OCc2ccccc2)c1 (centres undefined) :: > 100 µM
7. CC(NC(=O)C(N)CC(=O)O)NC(=O)N1CCCC1 (centres undefined) :: > 100 µM
8. CCN(CC)c1nc(N(C)C)c2cc(OC)ccc2n1 :: > 100 µM

Qu. Recorded TGI for "COc1ccc(-c2nnc(CCCCCCCCc3nnc(-c4ccc(OC)cc4)o3)o2)cc1" , please?
Ans. > 100 µM

---

system: ACHN renal; experiment: NCI tumour cell line growth inhibition, 48 h
endpoint_name: TGI

Here is how some molecules turned out for TGI.
1) CC(=O)O[C@H]1[C@@H](N2CCN(C)CC2)C[C@H]2[C@@H]3CC=C4C[C@@H](N5CCCC5)CC[C@]4(C)[C@H]3CC[C@@]21C :: > 100 µM
2) COc1cc(C=O)c(-c2cc3c(cc2C=O)OCO3)c(OC)c1OC :: > 290 µM

Would you mind listing TGI for each of the following molecules?
1. C[n+]1ccc(-c2c3nc(c(-c4ccc5c(ccc[n+]5C)c4)c4ccc([nH]4)c(-c4cc[n+](C)cc4)c4nc(c(-c5ccc6c(ccc[n+]6C)c5)c5ccc2[nH]5)C=C4)C=C3)cc1
2. CC1(C)OC(=S)N(c2ccccc2)C12C=Cc1cc3ccccc3cc1O2 (centres undefined)

Ans.
["> 50 µM", "> 100 µM"]

---

tested on: K-562 leukemia; test: NCI tumour cell line growth inhibition, 48 h
What TGI was measured for each of the following?

1. CC1=C2C(O)C(C(C)C(=O)NC(C)C)CCC2(C)C=CC1=O (stereo not drawn) :: > 100 µM
2. CC1Cc2cc(O)ccc2C2[C@@H]1C1CC[C@H](O)[C@@]1(C)C[C@@H]2O[N+](=O)[O-] (stereo partly drawn) :: 49.4 µM
3. O=C(c1ccccc1)c1c(CNCc2ccccc2)n(C(=O)c2ccccc2)c2ccccc12 :: > 100 µM
4. Cc1ccc(S(=O)(=O)n2cc(-c3nnnn3-c3ccc(Cl)cc3)c(=O)c3ccccc32)cc1 :: > 100 µM
5. CN(C)CCC1(C2=CCCC2)CC/C(=C\c2ccccc2)C1=O (stereo not drawn) :: 46.5 µM
6. CC(=O)OC1COC(Nn2c(=O)[nH]c3ccccc3c2=O)C(OC(C)=O)C1OC(C)=O (stereo not drawn) :: > 100 µM
7. CN1CCCN(C(c2ccccc2)c2ccc(Br)cc2)CC1 (stereo not drawn) :: > 100 µM

Qu. Recorded TGI for CCN(CC(COc1ccc2c(c1)[n+]([O-])nc(N)[n+]2[O-])OC(C)=O)C(C)=O (stereo not drawn) , please?
Ans. > 100 µM

---

system: CAKI-1 renal; test: NCI tumour cell line growth inhibition, 48 h
What TGI was measured for each of the following?

Here is how some compounds turned out for TGI.
1. Cn1c(=O)c2nc(N3CCCCC3)cnc2n(C)c1=O :: > 100 µM
2. C/C(=N\NC(=O)c1ccncc1)c1ccc(O)cc1O :: 8 µM

Would you mind listing TGI for each of the following compounds?
1. Cc1cc(NCCCCCCNc2cc(C)nc3ccc(Cl)cc23)c2cc(Cl)ccc2n1
2. CC1=C(c2cc(C(=O)Nc3nccs3)nc(NC#N)n2)Sc2ccccc2N1
3. COc1c(O)cc(C(=O)O[C@@H]2Cc3c(O)cc(O)cc3O[C@@H]2c2cc(O)c(O)c(O)c2)cc1O

Ans.
1: > 100 µM; 2: > 100 µM; 3: > 100 µM

Would you mind listing TGI for each of the following compounds?
1. N=c1oc2c(Cl)cc(Cl)cc2cc1C(=O)Nc1ccccn1
2. C=C(C(=O)O)[C@@H]1C[C@@H]2O[C@H]1CC(C)=CCC/C(C)=C/CC[C@@]2(C)O
3. CCc1ccc(Nc2cc(C)nc3nc(C)nn23)cc1
4. COc1ccc(Nc2ncccc2C(=O)NCc2cn(Cc3cccc(Oc4ccccc4)c3)nn2)cc1
5. COc1cc(/C=C(\C#N)c2ccccn2)cc(Br)c1O
6. O=C1C[C@H]2[C@H](c3ccc(Br)cc3)[C@H]3C(=O)c4ccccc4NC(=O)[C@@H]3[C@@]2(O)c2ccccc2N1
7. O=S(=O)(NCCCNc1cc(-c2cn(-c3ccccc3)nc2-c2cccc(O)c2)ccn1)c1ccc(Cl)cc1
8. COc1cc2c(cc1OC)C(Cc1c3ccccc3cc3ccccc13)N(C)CC2 (stereo unspecified)

Ans.
1: > 100 µM; 2: > 100 µM; 3: > 100 µM; 4: > 100 µM; 5: > 100 µM; 6: 28.3 µM; 7: 12 µM; 8: > 100 µM

Would you mind listing TGI for each of the following compounds?
1. Cn1c(=S)sc2nc3ccccc3n2c1=S
2. Cc1cc2[nH]c3c(C#N)c(-c4ccccc4)c(CN4CCOCC4)c(=O)n3c2cc1C
3. CCn1cnc2c(NC(C)=O)ncnc21
4. O=C1c2ccccc2C(=O)c2c1ccc1c2OCO1
5. O=C1O[C@H]2[C@@H]3OC(=O)c4cc(O)c(O)c(O)c4-c4c(cc(O)c(O)c4O)C(=O)OC[C@H]2O[C@@H](OC(=O)c2cc(O)c(O)c(O)c2)[C@@H]3OC(=O)c2cc(O)c(O)c3c2[C@@H]2C1=CC(=O)C(O)(O)C2(O)O3 (stereo partly specified)
6. CC(C)Oc1ccc(C(=O)N[C@H](CNC(=O)CN(C)C)Cc2ccc(-c3cn4cccc([C@H](C)O)c4n3)cc2)cc1Cl

Ans.
1: 39.2 µM; 2: > 100 µM; 3: > 100 µM; 4: > 100 µM; 5: 27.5 µM; 6: 17.9 µM

Would you mind listing TGI for each of the following compounds?
1. N#CC(c1cc(Cl)ncn1)c1nc2ccccc2s1 (stereo unspecified)
2. Cc1nc2cc(N)c(Cl)cc2[nH]1
3. Cc1n[nH]c(=O)n1N1C(=O)c2ccccc2C1=O
4. COc1cc(C2C(C#N)=C(N)Oc3cc(O)ccc32)cc(OC)c1OC (stereo unspecified)
5. O=C(c1ccc2c3c(ccc(C(=O)C(F)(F)F)c13)CC2)C(F)(F)F

Ans.
1. 82.1 µM
2. > 100 µM
3. > 100 µM
4. > 100 µM
5. > 100 µM

Would you mind listing TGI for each of the following compounds?
1. CN1CCCCC1CCN1c2ccccc2Sc2ccc(S(C)=O)cc21 (stereo unspecified)
2. O=C(/C(=C/c1cccs1)c1ccccc1)c1ccccc1

Ans.
1: > 100 µM; 2: > 100 µM
